Hey, just so you know, these numbers are from the supplement of paper PMC11061612.

- System: RERF-GC-1B (Gastric Carcinoma)
- experimentalProtocol: combination Emax (second highest fraction inhibited in the dose matrix, 72 h); higher = more inhibition; extreme values may be limits of the assay
Listed molecules paired with reported combination Emax
reportedMetric: combination Emax

INSERT INTO results (molecule, reported) VALUES
  ('Cc1c2c(nn1C)CSCc1cc(n(C)n1)CSc1cc(c3ccccc3c1)OCCCc1c(C(=O)O)n(C)c3c-2c(Cl)ccc13 [AZD5991] + CC1(C)CCC(CN2CCN(c3ccc(C(=O)NS(=O)(=O)c4ccc(NCC5CCOCC5)c([N+](=O)[O-])c4)c(Oc4cnc5[nH]ccc5c4)c3)CC2)=C(c2ccc(Cl)cc2)C1 [Venetoclax] (first compound max 1 µM, 7x7, partner max 1 µM)', 1),
  ('Cc1cc2ncnn2cc1Nc1ncc2c(n1)n(C1CCOCC1)c(=O)n2C [AZD7648] + O=C(c1cc(Cc2n[nH]c(=O)c3ccccc23)ccc1F)N1CCN(C(=O)C2CC2)CC1 [Olaparib] (first compound max 10 µM, 7x7, partner max 10 µM)', 0.228),
  ('COc1cccc(OCCCN)c1-c1cc(Nc2cnc(C#N)cn2)n[nH]1 [Prexasertib] + C=CCn1c(=O)c2cnc(Nc3ccc(N4CCN(C)CC4)cc3)nc2n1-c1cccc(C(C)(C)O)n1 [AZD1775] (first compound max 1 µM, partner max 1 µM)', 0.887);
